Data provenance: ChEMBL document CHEMBL1201862

Tested on: LOX IMVI
ASSAY_METHOD_TEXT: NCI tumour cell line growth inhibition, 48 h
The source made the active and inactive calls. Rule as the data show it: active = GI50 up to about 1.1 µM and inactive = higher.
Choose one outcome from this list and give only that: Yes = active, No = inactive

COMPOUND: O=S(=O)(CF)OCCCCOS(=O)(=O)CF
CATEGORY: No
--
COMPOUND: Cc1c(Cl)ccc2[s+]snc12
CATEGORY: No
--
COMPOUND: C=CC(O)(CBr)CCC(Br)C(=C)C (configuration not stated)
CATEGORY: No
--
COMPOUND: O=C1Nc2ccccc2N=CC1NC(=O)C(c1ccccc1)c1ccccc1 (configuration not stated)
CATEGORY: No
--
COMPOUND: CCOc1ccc(NCC(=O)N2CC(=O)Nc3ccccc32)cc1
CATEGORY: No

Identify the outcome logged in this assay for the compound shown: O=P(O)(O)c1ccc(-c2ccc(I)cc2)cc1
No

Next up: CCCOCN1COCN/C1=N\C#N
No

###

System: KM12
ASSAY_METHOD_TEXT: NCI tumour cell line growth inhibition, 48 h
The source made the active and inactive calls. Cut-off read from the data, not from the text of the source: active = GI50 up to about 1.1 µM and inactive = higher.
REPORTED_PROPERTY: GI50

See these solved cases before continuing.
QUERY_SMILES: COc1ccc(CCCNC(=O)c2cc(OC)c(OC)cc2CCO)cc1OC
GI50: > 100 µM (inactive)
--
QUERY_SMILES: CCC(=O)NC(Nc1ccc(O)cc1)(C(F)(F)F)C(F)(F)F
GI50: 62.7 µM (inactive)
--
QUERY_SMILES: CCOC(=O)[C-]([N+]#N)[Si](C)(C)C
GI50: > 100 µM (inactive)

Give GI50 (KM12) of the following compound: Cc1cc(C)c(S(=O)(=O)N(CCCCCCN)OCCCON(CCCCCCN)S(=O)(=O)c2c(C)cc(C)cc2C)c(C)c1
1.9 µM (inactive)

###

Reported GI50 values are given for each entry in this list.
System: NCI-H226
ASSAY_METHOD_TEXT: NCI tumour cell line growth inhibition, 48 h
Calls of active or inactive are those of the source. No stated cut-off is given here; in the data, active = GI50 up to about 1.1 µM and inactive = higher.

Some solved cases for reference:
COMPOUND: Cc1cccc2c1[nH]c1[nH]c(=O)[nH]c(=O)c12
MEASUREMENT: > 100 µM (inactive)

COMPOUND: C=C(COCO)C(C)=O
MEASUREMENT: > 61 µM (inactive)

COMPOUND: COC(=O)c1c(OC(C)=O)ccc2c1c1c(n2C)C(=O)c2ccccc2C1=O
MEASUREMENT: 38.9 µM (inactive)

COMPOUND: COc1ccc(C2CC(=O)CC(c3ccc(OC)cc3)C23C(=O)NC(=O)NC3=O)cc1 (configuration not stated)
MEASUREMENT: 35.2 µM (inactive)

COMPOUND: CCOc1cccc2sc(N)nc12
MEASUREMENT: > 100 µM (inactive)

COMPOUND: CN(C)CC(C)(C)CN1c2ccccc2Sc2ccccc21
MEASUREMENT: 18 µM (inactive)

COMPOUND: Nc1nc(Cl)cc(/N=N\c2ccccc2)n1
MEASUREMENT: 45.2 µM (inactive)

COMPOUND: O=C(/C=C\Nc1ccccc1O)C(Cl)(Cl)Cl
MEASUREMENT: > 100 µM (inactive)

What does the record list as GI50 for CC1(C)C=[N+]([O-])C(C)(C)N1O ?
> 10 µM (inactive)

###

System: A549
ASSAY_METHOD_TEXT: NCI tumour cell line growth inhibition, 48 h
Calls of active or inactive are those of the source. No stated cut-off is given here; in the data, active = GI50 up to about 1.1 µM and inactive = higher.
Outcome field: choose from Y for active, N for inactive

MOLECULE: O=C(CSc1nnc(Cc2ccccc2)o1)Nc1cccc([N+](=O)[O-])c1
CATEGORY: N

So what was the verdict on COC(=O)C(Cc1nc2ccc(Cl)cc2nc1O)/C(=N/O)C(=O)Nc1cccc(Cl)c1C (stereo not drawn) in this test?
N

Same for CC(C)C1=CC23CCC4C(C)(C(=O)O)CCCC4(C)C2CC1C1C(=O)N(c2ccc(C(=O)O)cc2)C(=O)C13 (stereo not drawn)
N

Next molecule: O=C(/C=C/c1ccc(O)c([N+](=O)[O-])c1)CC(=O)/C=C/c1ccc(O)c([N+](=O)[O-])c1
N

Now the molecule O=C(O)CN1C=C(C(=O)c2cc3ccccc3n2S(=O)(=O)c2ccccc2)CCC1
N

Moving on to CCOC(=O)C1(CO)CSCCSC1
N

Then what about the molecule CC1=NN=C(N)N/C1=C/C(Sc1ccc(Cl)cc1)c1cccs1 (stereo not drawn) ?
N

Also CC1C2CC(C(S(=O)(=O)N3CCOCC3)/C2=N\O)C1(C)C (stereo not drawn) ?
N

Try COc1cccc(C2c3cc4c(cc3OC(N3CCCC3)C2c2ccccc2)OCO4)c1O (stereo not drawn) next.
N

Then this molecule: O/N=C1/CC2(N3CCOCC3)C3CC/C(=N\O)C2CC1(Cc1ccccc1)C3 (stereo not drawn)
N

Same thing, different molecule: O=C(O)C1(Cc2ccc3c(c2)CCC3)Cc2ccccc2C1
N

Same read-out for O=c1c(C(c2cccc(C(c3c(O)oc4ccccc4c3=O)c3c(O)oc4ccccc4c3=O)c2)c2c(O)oc3ccccc3c2=O)c(O)oc2ccccc12 ?
N

Also CCOC(=O)c1c2ccccc2n2c(=O)n(C)nnc12 ?
N

Try the molecule Cc1c(C)c2cc3c(=O)c(CCl)coc3c(C)c2oc1=O
N

One more molecule: COc1cc(NS(C)(=O)=O)ccc1Nc1c2ccccc2nc2c1[nH]c1ccc(NC3OC(CO)C(O)C(O)C3O)cc12 (stereo not drawn)
Y

Continue with CCOC(=O)CC1=CSC2=NCCN12
N

Now give it for COc1cc2c(c(OC)c1OC)-c1ccc(SC)c(=O)cc1[C@@H](NCc1ccc(C#N)cc1)CC2 too.
Y

Next entry: Cc1cc(NS(=O)(=O)c2ccc(Nc3c4ccccc4nc4ccc(C(=O)Nc5ccc(S(=O)(=O)N=C(N)N)cc5)cc34)cc2)no1
N

And for CCCCC(O)(c1ccccc1)C(O)(c1ccccc1)c1c(F)c(F)c(F)c(F)c1F (stereo not drawn) ?
N

Same for C=CC(O)(CBr)CCC(Br)C(=C)C (stereo not drawn)
N

Try COc1cccc(OC)c1/C=C1\OC(=O)c2cccc(OC)c21 next.
N

Cool, now O=c1c2c3c(sc2nc2n1NC=NN2)CCCC3
N

# iterate: COc1ccc2nc(NCN3C(=O)c4ccccc4C3=O)sc2c1
N

// query: Nc1nc(Cl)cc(NCC2(CO)CCC(CCc3ccccc3)C2)n1 (stereo not drawn)
N

And CCN(CC)CSc1nc2ccccc2s1 ?
N

Would you mind doing O=C[C@@H](CO)O[C@H](C=O)n1cnc2c(=O)nc[nH]c21 as well?
N

For NC1=NN(c2ccccc2)C(=O)C1C(=O)CCC(=O)Nc1cccc(Cl)c1 (stereo not drawn) then?
N

Do the same for O=c1[nH]c(NCc2ccncc2)nc2[nH]cnc12 please
N

###

Tested on: KM-20L2
ASSAY_METHOD_TEXT: NCI tumour cell line growth inhibition, 48 h
The source made the active and inactive calls. Rule as the data show it: active = GI50 up to about 1.1 µM and inactive = higher.
REPORTED_PROPERTY: GI50

MOLECULE: COC(=O)C(CC(C)C)NC(=O)NC12CC3CC(CC(F)(C3)C1)C2 (stereo not given)
GI50: > 100 µM (inactive)

Request the reported GI50 associated with CC1OC(n2cc(C(F)(F)F)c(=O)[nH]c2=O)C=CC1=O (stereo not given)
22.3 µM (inactive)

Follow-up entry: COC(=O)C1=C(C(=O)OC)C2C(C)=CC(C)=CN2C(C#N)=C(SC)S1 (stereo not given)
32.7 µM (inactive)

Request: Cc1cccc(C)c1NC(=O)CCC(=O)CC(=O)C(C)C
> 100 µM (inactive)

Here is the next molecule: CN1C/C(=C\c2ccccc2)C2=NN(C(N)=S)[C@H](c3ccccc3)[C@@H]2C1
55.6 µM (inactive)

###

# GI50 values compiled below
Test system: SNB-19
ASSAY_METHOD_TEXT: NCI tumour cell line growth inhibition, 48 h
Calls of active or inactive are those of the source. No stated cut-off is given here; in the data, active = GI50 up to about 1.1 µM and inactive = higher.

Would you please look over these solved cases?
COMPOUND: COc1cc(/C=C2\CCC/C(=C\c3ccc(OC(=O)CCCCC4CCSS4)c(OC)c3)C2=O)ccc1OC(=O)CCCCC1CCSS1 (stereo not drawn)
GI50: > 100 µM (inactive)
--
COMPOUND: Nn1c(SCC(=O)NCc2ccccc2)nc2ccccc2c1=O
GI50: 67 µM (inactive)
--
COMPOUND: Cc1c(C)n(-c2ccccc2)c2nc(S(C)(=O)=O)nc(S(C)(=O)=O)c12
GI50: 3.3 µM (inactive)

May I ask what GI50 has been recorded for O=[N+]([O-])c1ccc(NC(=S)N/N=C(\c2ccccc2)c2ccccn2)cc1 ?
1.58 µM (inactive)

Record: CCc1c(Cc2cc(C)cc(C)c2)n2c(nc1=O)SCC2CBr (stereo not drawn)
23.1 µM (inactive)

What about CCCCCCCCCCC1OC([C@@H](O)CC[C@H](O)C2CC[C@@H](CCCCCCCC(O)CC3=CC(C)OC3=O)O2)CCC1O (stereo partly drawn) ?
9.46 µM (inactive)

Further, for ClCc1ccc(C2OCCO2)cc1 ?
> 43 µM (inactive)

Try this compound too: COc1cc2c3c(n(Cc4ccccc4)c(=O)c2cc1OC)-c1ccccc1C3=O
> 100 µM (inactive)

Now consider COC(=O)[C@]12CC[C@H]3CN(S(=O)(=O)c4ccc(C)cc4)[C@H]([C@H]31)[C@H](c1ccco1)N2S(=O)(=O)c1ccc(C)cc1 and answer again.
> 100 µM (inactive)

And for CCOC(=O)[C-]([N+]#N)[Si](C)(C)C ?
> 100 µM (inactive)

Try the compound COc1nn(Cc2ccccc2F)c2ccc([N+](=O)[O-])cc12
> 100 µM (inactive)

Request: CCn1c(=O)c2c3ccc(O)cc3[nH]c2c2ccc(O)cc21
> 100 µM (inactive)

Next record, please: CC(C)=CCc1c(O)cc(O)c2c1OC(c1ccc(O)cc1)C(O)C2=O (stereo not drawn)
37.2 µM (inactive)

Try this compound too: O=[N+]([O-])/C(C(Cl)=C(Cl)Cl)=C(/Sc1ccccc1)N1CCCCC1
> 58.7 µM (inactive)

Request: CC(=O)OCC1OC(N2C(=O)NC(=O)C3C=C4CCCCC4=CC32)CC1OC(C)=O (stereo not drawn)
> 100 µM (inactive)

Please answer likewise for COc1cccc(CC(=O)N2CCN(CCCc3ccccc3)CC2)c1
> 100 µM (inactive)

Param item: Cc1ccc(C2SCc3nc4ccccc4n32)cc1 (stereo not drawn)
4.65 µM (inactive)

Try this compound too: COC(=O)c1ccc(/C=C2\Cc3ccccc3C2=O)cc1
> 100 µM (inactive)

Quick one: COc1cccc(OC)c1/C=C1\OC(=O)c2cccc(OC)c21
4.74 µM (inactive)

Also Nc1nc(N)nc(CCCCc2nc(N)nc(N)n2)n1 , if possible.
> 100 µM (inactive)

One more compound: Oc1ccc(-c2cc(-c3cc(-c4ccc(O)cc4)no3)on2)cc1
> 100 µM (inactive)

Field entry: CS/C(=N\c1ccccc1Cl)NC(=O)c1ccc(Br)cc1
33.1 µM (inactive)

Please do the same for COC(=O)C1=C(C(=O)OC)SC2(S1)C1=C(CCCC1)SC(C(=O)OC)=C2C(=O)OC as well.
14.5 µM (inactive)
